Recorded melting point by entry

Reference set, count: 2
>  <Compound>
ON=C1CCN(Cc2ccccn2)CC1

>  <melting point>
61 to 63 °C

$$$$
>  <Compound>
NNS(=O)(=O)c1ccccc1[N+](=O)[O-]

>  <melting point>
89 to 91 °C

$$$$

Qu. What melting point value was documented for this compound, CCCC(NC(C)=O)C(=O)O (configuration not stated) ?
Ans. 114 to 116 °C

Qu. Please give the result for Nc1ccccc1CN1CCNC1=O too.
Ans. 142 to 144 °C

Qu. For O=C(O)c1cn(-c2ccccc2)nc1-c1ccc(Br)cc1 then?
Ans. 262 to 264 °C

Qu. Request: C#CCOc1ccccc1C=O
Ans. 70 to 72 °C

Qu. And CC(Cl)C(=O)NCCc1cccs1 (configuration not stated) ?
Ans. < 17 °C

* * *

Listed here: items and their measured melting point.

Known melting point results, listed for orientation:
>  <Molecule>
Nc1cc(F)ccc1N1CC(C(F)(F)F)OC1=O (stereo not drawn)

>  <melting point>
119 to 121 °C

$$$$
>  <Molecule>
Cc1ccc(C)c(S(=O)(=O)N2CCN(C(=O)CCC(=O)O)CC2)c1

>  <melting point>
143 to 145 °C

$$$$
>  <Molecule>
O=C(O)CNC(=O)c1ccc(Cl)cc1

>  <melting point>
214 to 216 °C

$$$$
>  <Molecule>
Cc1nn(-c2ccccc2)c(N2CCCCC2)c1C=O

>  <melting point>
75 to 77 °C

$$$$
>  <Molecule>
Cc1nn(Cc2ccccc2)c(C)c1C=NO

>  <melting point>
135 to 137 °C

$$$$
>  <Molecule>
COc1ccc(-c2noc(CCl)n2)cc1OC

>  <melting point>
101 to 103 °C

$$$$
>  <Molecule>
Cc1cc2ncc(Br)cn2n1

>  <melting point>
137 to 139 °C

$$$$
>  <Molecule>
Nc1ccc2[nH]c(-c3cc(F)ccc3F)nc2c1

>  <melting point>
188 to 190 °C

$$$$

Qu. What measured melting point goes with CS(=O)(=O)NCC1CCCNC1 (stereo not drawn) ?
Ans. 130 to 132 °C

Qu. # iterate: CC1CC(=O)NC(=O)C1
Ans. 144 to 146 °C

Qu. Thanks! And O=[N+]([O-])c1cc(Cl)ccc1NC1CC1 ?
Ans. 70 to 72 °C

Qu. Cool, now COc1cccc(NCCC#N)c1
Ans. 81 to 83 °C

Qu. Moving on to CCc1ccc(-c2ccc(C(=O)O)o2)cc1
Ans. 170 to 172 °C

Qu. Moving on to Sc1nc(-c2ccccc2)c(-c2ccccc2)n1Cc1ccccc1
Ans. 280 to 282 °C

Qu. Same again, this time with O=C1CC(C(=O)O)CN1 (stereo not drawn)
Ans. 129 to 131 °C

Qu. And CC(C)(C)C(=O)Nc1nccnc1C(=O)O ?
Ans. 96 to 98 °C

* * *

Reported Endpoint: melting point

A selection of reference data follows.
>  <Compound>
CC(=O)c1c(C)cc(C)c(CCl)c1C

>  <melting point>
74 to 76 °C

$$$$
>  <Compound>
O=C(O)c1cn(-c2ccccc2C(F)(F)F)nn1

>  <melting point>
129 to 131 °C

$$$$
>  <Compound>
COc1cc2c(C#N)c(OC)nc(N)c2c(N)n1

>  <melting point>
249 to 251 °C

$$$$
>  <Compound>
CNC(=S)NNC(=O)c1ccccc1

>  <melting point>
181 to 183 °C

$$$$

Qu. Endpoint output: melting point of Cn1cc(N2CCC(N)C2=O)cn1 (stereo not drawn) . Value?
Ans. 131 to 133 °C

Qu. Could you do the same for CC(C)c1ccc(-c2nnn[nH]2)cc1 , please?
Ans. 186 to 188 °C

* * *

Reported Endpoint: melting point

// below: answered molecules
>  <Compound Structure String>
CN(Cc1ccccc1)c1nc2ccccc2[nH]1

>  <melting point>
206 to 208 °C

$$$$
>  <Compound Structure String>
NC(=O)COc1ccc(N)cc1

>  <melting point>
124 to 126 °C

$$$$
>  <Compound Structure String>
Cc1cc(S(=O)(=O)Cl)ccc1OCC(=O)O

>  <melting point>
127 to 129 °C

$$$$
>  <Compound Structure String>
Cn1c(=O)c2c(ncn2CCCC(=O)O)n(C)c1=O

>  <melting point>
167 to 169 °C

$$$$
>  <Compound Structure String>
COc1cccc(Nc2nnc(SCC(=O)O)s2)c1

>  <melting point>
135 to 137 °C

$$$$

Qu. Can you look up the measured melting point of Nc1ccc2nc(NC(=O)CN3CCOCC3)sc2c1 for me?
Ans. 228 to 230 °C

Qu. Consider next the molecule COc1cc(C=O)cc(OC)c1OCC(N)=O in the same way.
Ans. 165 to 167 °C

* * *

Reported Endpoint: melting point

// solved cases for melting point follow
>  <Compound>
CCOc1ccccc1-c1cc(C(=O)O)n[nH]1

>  <melting point>
224 to 226 °C

$$$$
>  <Compound>
CC(C)n1ncc2c(C(=O)O)cc(-c3ccccc3)nc21

>  <melting point>
198 to 200 °C

$$$$
>  <Compound>
Nc1nc(-c2ccc[nH]2)cs1

>  <melting point>
155 to 159 °C

$$$$
>  <Compound>
COC(=O)c1ccc(OCC2CO2)cc1 (stereo not drawn)

>  <melting point>
59 to 61 °C

$$$$
>  <Compound>
O=C(O)c1nc(NCCc2ccccc2)ncc1Cl

>  <melting point>
158 to 160 °C

$$$$
>  <Compound>
CSc1cc(C(=O)O)oc1C

>  <melting point>
144 to 146 °C

$$$$
>  <Compound>
CCc1noc2ncc(C(=O)O)cc12

>  <melting point>
193 to 195 °C

$$$$
>  <Compound>
Cc1[nH]c2ccc(F)cc2c1CC(=O)O

>  <melting point>
180 to 182 °C

$$$$
>  <Compound>
COc1ncccc1NC(=O)OCC(F)(F)F

>  <melting point>
44 to 46 °C

$$$$
>  <Compound>
Cc1cc(C(=O)O)c(N)cc1F

>  <melting point>
219 to 221 °C

$$$$

Qu. What value of melting point has been reported for the following compound? Cn1c(CO)nc2cc(Cl)ccc21
Ans. 179 to 181 °C

Qu. Param item: O=[N+]([O-])c1ccc(Br)c2ccncc12
Ans. 134 to 136 °C

Qu. Lookup Cn1ncc(C(=O)O)c1Br
Ans. 202 to 204 °C

Qu. Would you kindly repeat that for CCSCc1ccc(C(=O)O)cc1 ?
Ans. 123 to 125 °C

* * *

The compounds listed here are annotated with their melting point.

>  <Compound>
Cc1n[nH]cc1C=O

>  <Reported Endpoint>
melting point

>  <Val>
104 to 106 °C

$$$$
>  <Compound>
Nc1ccc(CCN2CCCCC2)cc1

>  <Reported Endpoint>
melting point

>  <Val>
54 to 56 °C

$$$$
>  <Compound>
CCn1c(S)nnc1CCC(N)=O

>  <Reported Endpoint>
melting point

>  <Val>
208 to 210 °C

$$$$
>  <Compound>
NS(=O)(=O)NCc1ccccn1

>  <Reported Endpoint>
melting point

>  <Val>
138 to 140 °C

$$$$
>  <Compound>
CCOC(=O)c1cc(Br)ccc1N

>  <Reported Endpoint>
melting point

>  <Val>
79 to 81 °C

$$$$
>  <Compound>
Cc1oncc1C(=O)Nc1ccc(O)c(C(=O)O)c1

>  <Reported Endpoint>
melting point

>  <Val>
249 to 251 °C

$$$$
>  <Compound>
O=C(O)CNC(=O)C1CCOCC1

>  <Reported Endpoint>
melting point

>  <Val>
166 to 168 °C

$$$$
>  <Compound>
Cc1cc(C=O)c(C)n1CC#N

>  <Reported Endpoint>
melting point

>  <Val>
122 to 124 °C

$$$$
>  <Compound>
Cc1ccc(-c2nnco2)cc1N

>  <Reported Endpoint>
melting point

>  <Val>
136 to 138 °C

$$$$
>  <Compound>
O=C1CC(C(=O)O)c2ccccc2N1 (stereo unspecified)

>  <Reported Endpoint>
melting point

>  <Val>
211 to 213 °C

$$$$

Qu. melting point lookup needed for CC(=O)N1CCCC(C(=O)O)C1 (stereo unspecified) , thanks.
Ans. 129 to 131 °C

Qu. Input CC(C)(C)c1ccc(Oc2ccc(C(=O)O)cc2F)cc1
Ans. 171 to 173 °C

Qu. Next record, please: Nc1nnc(-c2ccncc2)o1
Ans. 239 to 241 °C

Qu. Item: FC(F)(F)c1ccnc(N2CCNCC2)n1
Ans. 49 to 51 °C

Qu. Another compound to look at: Cc1ccc(C(=O)O)c(O)c1O
Ans. 204 to 206 °C

Qu. And COC(=O)c1cc(Cl)cc(S(=O)(=O)Cl)c1 ?
Ans. 50 to 52 °C

Qu. Same question for CC(Oc1ccc(Br)cc1F)C(=O)O (stereo unspecified) please.
Ans. 113 to 115 °C

Qu. Subsequent entry: COC(=O)/C(C#N)=C/c1ccc(OC)cc1
Ans. 105 to 107 °C

Qu. How about COC(=O)CNc1ncccc1[N+](=O)[O-] ?
Ans. 104 to 106 °C

The reported measurements were obtained from a melting point compilation (Tetko et al.).
